Sourced from the supplement of paper PMC10065799

# Tested on: Fer (mouse)
# Procedure summary: phosphorylation enrichment, bacterial display (enrichment ratio); higher = better substrate or ligand; peptides without Tyr show the background;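 further: 11-residue human phosphosite peptides and single-mutation variants displayed on the E. coli surface, counted by deep sequencing, each peptide's frequency after selection divided by its frequency in the unselected input library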;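 further: frequency after pTyr selection over input frequency; kinase dosed for 20-30% of maximal phosphorylation in three min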
Everything with phosphorylation enrichment lower than 0.5 is -1; everything else, including exactly 0.5, is 1.

MPPHICAITDT [MYH9_Y151_Y151C] = 1
ASFSLYEPAKM [MKI67_Y340_P338S] = 1
RLLVVFPWTQR [HBB_Y36_Y36F] = 1
IRCQGYSHRIL [MYO3B_Y993_R990C] = -1
ADRTRYSAFGG [RBM4_Y361_A359T] = -1
CRERPYGGGGG [FUS_Y526_R521C] = 1
GNKENYGLPQP [BUB1_Y538] = -1

###

# Tested target: Jak2 (UniProt O60674)
# Sequence (O60674 whole entry, looked up): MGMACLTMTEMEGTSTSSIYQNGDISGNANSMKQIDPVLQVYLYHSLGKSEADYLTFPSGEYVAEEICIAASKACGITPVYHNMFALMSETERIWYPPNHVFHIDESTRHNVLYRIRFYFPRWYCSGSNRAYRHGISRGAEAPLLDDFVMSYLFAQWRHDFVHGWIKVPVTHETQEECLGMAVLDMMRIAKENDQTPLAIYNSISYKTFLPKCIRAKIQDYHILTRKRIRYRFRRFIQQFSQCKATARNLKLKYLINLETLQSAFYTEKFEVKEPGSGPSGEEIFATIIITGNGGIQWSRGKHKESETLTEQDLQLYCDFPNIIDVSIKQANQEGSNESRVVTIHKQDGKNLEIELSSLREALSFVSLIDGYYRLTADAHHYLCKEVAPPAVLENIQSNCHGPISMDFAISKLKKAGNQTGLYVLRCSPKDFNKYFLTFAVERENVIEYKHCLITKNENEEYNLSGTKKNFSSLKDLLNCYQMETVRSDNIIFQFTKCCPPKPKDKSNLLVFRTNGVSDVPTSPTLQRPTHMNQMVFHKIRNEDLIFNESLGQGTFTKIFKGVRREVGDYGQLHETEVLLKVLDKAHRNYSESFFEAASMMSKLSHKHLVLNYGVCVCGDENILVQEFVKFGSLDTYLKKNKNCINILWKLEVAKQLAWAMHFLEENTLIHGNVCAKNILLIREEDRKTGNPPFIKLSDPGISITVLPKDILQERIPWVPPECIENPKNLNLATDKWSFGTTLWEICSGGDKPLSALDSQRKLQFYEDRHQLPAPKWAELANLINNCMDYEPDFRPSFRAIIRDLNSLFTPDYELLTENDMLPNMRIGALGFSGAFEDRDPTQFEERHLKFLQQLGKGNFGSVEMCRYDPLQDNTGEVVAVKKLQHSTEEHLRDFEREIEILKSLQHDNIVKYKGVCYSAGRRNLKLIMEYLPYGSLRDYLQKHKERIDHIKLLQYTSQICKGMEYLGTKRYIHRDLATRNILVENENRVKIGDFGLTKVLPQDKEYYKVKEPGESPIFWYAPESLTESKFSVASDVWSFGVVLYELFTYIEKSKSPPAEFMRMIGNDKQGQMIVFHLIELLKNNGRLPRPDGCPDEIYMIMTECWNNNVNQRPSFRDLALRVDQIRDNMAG
# Procedure summary: phosphorylation enrichment, bacterial display (enrichment ratio); higher = better substrate or ligand; peptides without Tyr show the background
Parameter: phosphorylation enrichment

HNQDDYSFPSR [LDLR_Y845_G844D_YF] = 0.536
RLDRSYSFSFS [PEAR1_Y890_YF] = 0.816
SSAAGYACLAY [MVD_Y131] = 1.02
QFNIQYSSSAA [ERBB2IP_Y981_YF] = 0.935
YLENYYDLEKD [MMP3_Y42_K45E] = 1.15
WNRDKYAATTT [TRIM39_Y439_G436R] = 0.65
CPASVYTKRCS [CPT2_Y508_R503C] = 0.518
NKYTTYLPWLP [C9orf24_Y126_R129W] = 2.34
RDIHDYIKHLG [UNC13C_Y308] = 0.614
TVEDHDYEGGI [TKT_Y563_Y563D] = 0.963
VHNLNYYKKTT [FGFR3_Y647_D646N] = 0.728
KNKELYSDPFD [PDE10A_Y300_L303P] = 0.763
INPIIYAFVGG [CCR5_Y297_E302G] = 1.55
FPAVGYHKPHI [IDS_Y225_L221P] = 0.625
ADEEYYEIIAA [FEStide_no-pY_2014] = 1.31
LEPHIYAVADV [MYO9A_Y216] = 0.741
NTGLEYIKFTW [HRH1_Y386_D385E] = 1.37
KERNQYGGVMV [MMP21_Y347_E349G] = 0.425
ASNFNYFYHRE [KCNA1_Y413_V408A] = 0.732
PVVKLYATDGR [RP1_Y199] = 0.781
FADTAYNYRHG [PAH_Y166_I164T] = 0.509
SENYTYIWWLN [PSG4_Y271_K267E] = 1.27
IWIFHYAKGQP [MPZ_Y82_S78W] = 1.28
LASLIYNFILF [AQP6_Y231_V234I] = 2.98
SFGENYDNSKS [MAN1B1_Y60] = 0.89
ISRDVYSTDYY [NTRK2_Y702_M697I] = 1.12
IYETDYYQKGG [INSR_Y1189_R1191Q] = 0.819
LAARYYNWVCF [FLT4_Y1231_S1235C] = 1.11
SVVVPYEAPEV [TP53_Y220_P222A] = 0.998

###

# Test system: Fer (mouse)
# Procedure summary: phosphorylation enrichment, bacterial display (enrichment ratio); higher = better substrate or ligand; peptides without Tyr show the background
Parameter: phosphorylation enrichment

DEDFLCREELA [POR_Y575_Y575C_YF] = 0.486
EVDETYVPKKF [ALB_Y521_E525K] = 0.371
ILKPDYQPLAV [HYDIN_Y1072_I1077V] = 0.387
FFSSEYHCVGG [CTSC_Y345_Y347C_YF] = 0.545
RSSGSYGGGGQ [HNRNPA1_Y341_P340S] = 0.438
SLLLSYYLIKW [NUP160_Y773_P768S] = 0.47
KSLSQYLEMDK [CAGE1_Y438_V435L] = 0.348
LLIMEYAKFGS [RET_Y806_V804M_YF] = 0.909
DMLTLYVNTAA [SMCHD1_Y403_Q400L] = 0.535
IEEGTYGVVYR [CDK11B_Y449] = 7.46
ADCRYYTFPQM [GAMT_Y223_A224T] = 4.67
RALLNYIASKY [GSTA3_Y74_I71L] = 0.47
ERDYTYEELLN [EIF2S2_Y176] = 0.65
NRLNDYIFSFD [RARS1_Y516] = 0.424
FSQETYFRVSN [ABCD1_Y180_Q178E_YF] = 0.45
TLPAFYMGNFS [GLB1_Y552] = 0.625
MAPQMYEFHLP [NCAPD2_Y6] = 19.6
SFGENYDNSKS [MAN1B1_Y60] = 0.444
CVGGFYGGCNE [CTSC_Y352_Y347C] = 0.566
SSWPGYVRPLP [HSPB1_Y54] = 0.459
KLKRSYCSPDI [USP8_Y717_S718C] = 0.318
LDYNEYFRYLN [HPRT1_Y198_D201Y] = 0.635
RISRKYKKVRF [F8_Y442_G439S] = 0.759
TLNHQYDYTFH [CSNK1A1_Y292_D297H] = 1.4
VAMDDYLKNVM [LRRK2_Y707] = 0.333
VNYGAYINDFN [GLB1_Y488_K493N] = 0.462
KKRSVYLKVLF [CC2D2A_Y683] = 0.478
QAKRKYQEVSK [FES_Y156_A159V] = 0.233
CTTIHYNYMCT [TP53_Y234_N239T] = 0.915
QLCVSYPGGYT [PROS1_Y259_N258S] = 0.591
ITGNGYFFRVF [MYBPC3_Y1135_I1131T_YF] = 0.416
CTTIHYNFMFN [TP53_Y234_C238F_YF] = 0.789
FGSIMYEFVGK [SLC18A1_Y251_V249I] = 9.41
NTYEKYWLFYQ [GATM_Y103_P105L] = 0.874
FRARAYSFRGP [CHGA_Y381_G382S] = 0.456
HRGHLYLAIEF [TEK_Y899_Y897H_YF] = 1.38
IGSQRYKLGVR [RB1_Y446] = 0.322
ADEEYYEIIAA [FEStide_no-pY_2014] = 5.58
GHGRFYMKEAI [PGM1_Y66_D62H] = 0.405
SDVCMYRKNIY [SYNE2_Y570] = 0.491
EESREYDRLYE [PIK3R1_Y463_K459E] = 0.641
NFADPYRQLQF [CTNND2_Y503_YF] = 0.436
AEYGLYRAMVR [VSX2_Y222_G223R] = 0.603
NKYTTYLPWLP [C9orf24_Y126_R129W] = 9.65
FFIMMYTGSNV [DNAJC13_Y1131] = 0.589
FQEPVYSVAFS [TBL1X_Y509_H504Y_YF] = 16.6
CTLNVYRQLHN [LUZP1_Y1036_S1034N] = 0.516
GLRFGYGVLGG [KRTAP20-2_Y15_YF] = 0.387
GSPPPYRRRKR [MBD1_Y403] = 0.608
IIRYNYLLDVL [FGFR4_Y237_S232I] = 0.507
NQDRTYYERVR [SPEN_Y632_S635R] = 0.511
AAAAMYTFLPD [MYORG_Y36] = 1
HRGCLYLAIEY [TEK_Y899_Y897C] = 0.868
LSGFCYRLSDQ [PDCD6_Y124_G123C] = 0.816
FSNVLYRPRGA [TMIGD2_Y197_YF] = 0.479
IWIFHYAKGQP [MPZ_Y82_S78W] = 0.459
